The reported numbers originate from PubChem BioAssay.

- Test system: PRMT1 (protein arginine N-methyltransferase 1)
- Test Details: small molecules binding arginine methyltransferase PRMT1 – biochemical, small-molecule microarray, 635 nm fluorescence, primary screen (AID 1088);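 further: binding of Prmt1 protein to compounds spotted on small-molecule microarray slides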
- Experimental Conditions: higher = more signal
I'd be grateful if you could share measured composite z-score for these entries.
Write no unit; give the number alone.

Kindly state the measured composite z-score obtained for COC(=O)C[C@H]1O[C@@]2(C[C@@H]1[Si](C)(C)C)C(=O)N(C)c1ccccc12 with PRMT1 (protein arginine N-methyltransferase 1).
0.447

Request body: readout composite z-score, system PRMT1 (protein arginine N-methyltransferase 1), query CN(C)C(=O)[C@]1(Cc2ccccc2)N=C(c2ccc(OCCCO)cc2)O[C@@H]1c1ccccc1CN=[N+]=[N-] . Return the value.
1.53

Item O=C1C2C=CC(C(O)c3c(F)cccc3Cl)N(Nc3ccc([N+](=O)[O-])cc3)C2C(=O)N1c1ccccc1 (stereo not given) with PRMT1 (protein arginine N-methyltransferase 1) - composite z-score?
1.55

Notebook entry, PRMT1 (protein arginine N-methyltransferase 1) assay: composite z-score of C=CC[C@]1(C(=O)NCC(O)CO)COC(c2ccc(OCCCO)cc2)=N1 (stereo not given in full) = ?
-0.726

Give composite z-score (PRMT1 (protein arginine N-methyltransferase 1)) of the following molecule: C=CCC(OC(C)=O)[C@@H]1[C@@H](N(Cc2cc3ccccc3o2)C(=O)c2cccc3ccccc23)c2cc(OCCCO)ccc2N1C(=O)c1ccc2ccccc2n1 (stereo not given in full)
0.109

Request body: readout composite z-score, system PRMT1 (protein arginine N-methyltransferase 1), query [N-]=[N+]=Nc1ccccc1[C@@H]1OC(c2ccc(OCCCO)cc2)=N[C@]1(CCS(=O)(=O)c1ccccc1)C(=O)NCC(O)CO (stereo not given in full) . Return the value.
0.856

// lookup composite z-score | system=PRMT1 (protein arginine N-methyltransferase 1) | key= O=C1c2ccccc2[C@@]2(Cc3ccccc3N(Cc3ccccc3)C2=O)[C@H](c2ccc(CO)cc2)N1Cc1ccccc1Cl
0.11

Request body: readout composite z-score, system PRMT1 (protein arginine N-methyltransferase 1), query C=CCN1C(=O)[C@]2(O[C@H](CCn3cc([C@H](O)c4ccccc4)nn3)[C@@H]([Si](C)(C)c3ccc(OC)cc3)[C@@H]2C)c2cc(NC(=O)c3ccc(OC)cc3)ccc21 . Return the value.
1.55

API: value(readout=composite z-score, system=PRMT1 (protein arginine N-methyltransferase 1)) for record CC(C)C(=C=CC[C@H](O)c1ccccc1OCCO)C[C@H](O)c1cc(Cl)cc(Cl)c1O
1.55

What reported composite z-score corresponds to C=C(CCCC)/C(=C/C[C@@H](OC(C)=O)c1ccc(CO)o1)c1cnc2ccccc2c1 on PRMT1 (protein arginine N-methyltransferase 1)?
1.54

Return composite z-score measured with PRMT1 (protein arginine N-methyltransferase 1) given this molecule: NC(=O)N1C(=O)C2C(C1=O)C1C=C(CCCO)C2C(c2ccc(CN3CCCC3)cc2)N1Cc1cc2c(cc1Br)OCO2 (stereo not given)
0.964

For the record CC(=O)OCC1C2CC[C@H]3C(OCc4ccc(F)cc4C(F)(F)F)OC[C@]4(C)[C@H]3C2=C(CN4C(=O)OC(C)(C)C)[C@H](C)C1COC(C)=O (stereo not given in full) , what value of composite z-score is listed for PRMT1 (protein arginine N-methyltransferase 1)?
-0.025

Short answer please: composite z-score, PRMT1 (protein arginine N-methyltransferase 1), entry CCCNC(=O)[C@@]1(c2ccc([N+](=O)[O-])cc2)CC(=O)N(C(C)C)[C@@H]1c1ccc(CO)cc1
-0.854

Form field: composite z-score recorded for COCCOC(=O)N1C(=O)[C@@]2(c3cc(C#CCNC(N)=O)ccc31)[C@H](C(=O)Nc1nc3ccccc3s1)[C@H]1C(=O)O[C@H](c3ccccc3)[C@H](c3ccccc3)N1[C@@H]2c1ccccc1OCCO with PRMT1 (protein arginine N-methyltransferase 1) (enter value)
1.56

Which composite z-score is reported with PRMT1 (protein arginine N-methyltransferase 1) for this entry: C=CCC(OC(C)=O)[C@@H]1[C@@H](N(Cc2cccc3ccccc23)C(=O)Cc2ccc(OC)cc2)c2cc(OCCCO)ccc2N1C(=O)c1ccc2ccccc2c1 (stereo not given in full) ?
1.14

// lookup composite z-score | system=PRMT1 (protein arginine N-methyltransferase 1) | key= COc1cc(C(O)C2C=CC3C(=O)N(c4ccccc4)C(=O)C3N2Nc2ccccc2F)cc(OC)c1OC (stereo not given)
1.54

Find the measured composite z-score: item O=C1N(Cc2ccccc2)c2ccccc2C[C@@]12COC(c1ccc(OCCCO)cc1)=N2 , target or system PRMT1 (protein arginine N-methyltransferase 1).
1.56

GET /values?readout=composite z-score&system=PRMT1 (protein arginine N-methyltransferase 1)&item= CCOC(=O)C1=CC[C@@H](c2ccc(OC)cc2)N(S(=O)(=O)c2ccc(C)cc2)[C@H]1c1ccc(C)cc1
0.966

Which composite z-score is reported with PRMT1 (protein arginine N-methyltransferase 1) for this entry: CC(C)OC(=O)CC(=O)CC(O)c1cccc([N+](=O)[O-])c1 (stereo not given) ?
1.09

Given the entry C[N+](C)(C)CCCC[C@@H]1NC(=O)[C@H]2C[C@@H](C(=O)NCCCCCNC(=O)CS)[C@@H](c3cccc(OCCO)c3)N2C1=O , what composite z-score was observed with PRMT1 (protein arginine N-methyltransferase 1)?
-0.248

Request body: readout composite z-score, system PRMT1 (protein arginine N-methyltransferase 1), query COc1ccc(C(O)C2C=CC3C(=O)N(c4ccccc4)C(=O)C3N2Nc2ccc(C#N)cc2)cc1OCc1ccccc1 (stereo not given) . Return the value.
1.3

Form entry - test system: PRMT1 (protein arginine N-methyltransferase 1); read-out: composite z-score; molecule: C#CCN1[C@@H](Cc2ccccc2)C(=O)O[C@H](Cc2ccccc2)[C@@H]1/C=C/C1CC1
-0.101

Observed composite z-score on PRMT1 (protein arginine N-methyltransferase 1) for [N-]=[N+]=Nc1ccccc1C[C@@]1(C(=O)NCc2ccccc2)N=C(c2ccc(OCCCO)cc2)O[C@@H]1c1ccccc1N=[N+]=[N-] , please.
1.58

Form: Entry = O=C(NCC(O)CO)[C@@]1(CCS(=O)(=O)c2ccccc2)N=C(c2ccc(OCCCO)cc2)O[C@H]1c1ccccc1 (stereo not given in full) | System = PRMT1 (protein arginine N-methyltransferase 1) | composite z-score = ____
0.845

Item CC(C)=CCCC(C)=CC(O)C1C=CC2C(=O)NC(=O)C2N1Nc1ccccn1 (stereo not given) with PRMT1 (protein arginine N-methyltransferase 1) - composite z-score?
1.56

I'm curious: which composite z-score was measured for CC1CC/C=C\[C@H]2OC34C=CCN(CCN5CCOCC5)C(=O)[C@H]3N(CCCO)C(=O)[C@@H]4C2C(=O)O1 (stereo not given in full) tested on PRMT1 (protein arginine N-methyltransferase 1)?
-0.536

PRMT1 (protein arginine N-methyltransferase 1) / composite z-score / C=CCNC(=O)[C@H]1[C@@H]2C(=O)O[C@@H](c3ccccc3)[C@@H](c3ccccc3)N2[C@@H](c2ccc(OCCO)cc2)[C@]12C(=O)Nc1ccccc12 : value?
1.18

What is its composite z-score for PRMT1 (protein arginine N-methyltransferase 1)? Entry: CCOC(=O)C[C@H]1[C@H](OC(=O)Cc2ccc3c(c2)OCO3)[C@@H](NC(=O)c2ccc3ccccc3n2)c2cc(OCCCO)ccc2N1C(=O)Cc1ccc(OC)cc1
0.742

Lab note: need composite z-score with PRMT1 (protein arginine N-methyltransferase 1) for entry CN1C(=O)C2C=CC(C(O)c3ccc(-c4ccccc4)s3)N(NC(=O)OC(C)(C)C)C2C1=O (stereo not given) , please look it up.
0.938

For PRMT1 (protein arginine N-methyltransferase 1), provide composite z-score of Cc1ccc(N2C(=O)c3ccccc3[C@](C)(C(=O)NCCCN(C)C)[C@@H]2c2ccc(CO)cc2)nc1 please.
0.409
